Parameter microsomal CLint: see the listing below.
Test: Intrinsic clearance in human liver microsomes
Format: ADME, Microsome
Answer in µL/min/mg, number only, no unit symbol.

Fill in: microsomal CLint of c1ccc([C@@H]2Cc3nccn3C2)c(-c2ncco2)c1 is ___
12

Fill in: microsomal CLint of Fc1ccc(C2Cc3nccn3C2)c(-n2cccn2)c1 (stereo not given) is ___
12

---

Biological target: CYP2C9 (Homo sapiens, UniProt P11712)
Sequence (P11712 whole entry): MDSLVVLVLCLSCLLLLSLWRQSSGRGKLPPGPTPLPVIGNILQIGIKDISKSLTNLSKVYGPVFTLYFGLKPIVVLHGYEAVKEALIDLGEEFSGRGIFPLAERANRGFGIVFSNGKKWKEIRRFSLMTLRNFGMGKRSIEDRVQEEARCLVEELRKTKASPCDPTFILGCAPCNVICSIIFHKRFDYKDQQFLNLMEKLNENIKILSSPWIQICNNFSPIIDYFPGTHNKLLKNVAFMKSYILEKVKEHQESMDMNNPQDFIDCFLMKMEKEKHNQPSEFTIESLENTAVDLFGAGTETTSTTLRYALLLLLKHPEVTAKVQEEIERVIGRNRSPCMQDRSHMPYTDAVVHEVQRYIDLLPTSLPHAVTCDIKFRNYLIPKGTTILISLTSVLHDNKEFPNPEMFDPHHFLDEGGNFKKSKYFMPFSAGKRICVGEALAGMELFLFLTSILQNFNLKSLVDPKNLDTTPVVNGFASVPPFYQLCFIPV
Assay: Inhibition of CYP2C9 at 3 uM
Format: ADME
MEASURE: inhibition at 3 µM

Fill in: inhibition at 3 µM of Fc1ccc(-c2cncnc2)c(C2Cc3nccn3C2)c1 (stereo unspecified) is ___
< 10%
